target: UniProtKB P22303; test: biochemical; conditions: triplicate; galantamine positive control; IC50 exceeding 40 μM considered inactive; read-out: hAChE inhibitory activity IC50 ± SD
Sequence (P22303 32-614): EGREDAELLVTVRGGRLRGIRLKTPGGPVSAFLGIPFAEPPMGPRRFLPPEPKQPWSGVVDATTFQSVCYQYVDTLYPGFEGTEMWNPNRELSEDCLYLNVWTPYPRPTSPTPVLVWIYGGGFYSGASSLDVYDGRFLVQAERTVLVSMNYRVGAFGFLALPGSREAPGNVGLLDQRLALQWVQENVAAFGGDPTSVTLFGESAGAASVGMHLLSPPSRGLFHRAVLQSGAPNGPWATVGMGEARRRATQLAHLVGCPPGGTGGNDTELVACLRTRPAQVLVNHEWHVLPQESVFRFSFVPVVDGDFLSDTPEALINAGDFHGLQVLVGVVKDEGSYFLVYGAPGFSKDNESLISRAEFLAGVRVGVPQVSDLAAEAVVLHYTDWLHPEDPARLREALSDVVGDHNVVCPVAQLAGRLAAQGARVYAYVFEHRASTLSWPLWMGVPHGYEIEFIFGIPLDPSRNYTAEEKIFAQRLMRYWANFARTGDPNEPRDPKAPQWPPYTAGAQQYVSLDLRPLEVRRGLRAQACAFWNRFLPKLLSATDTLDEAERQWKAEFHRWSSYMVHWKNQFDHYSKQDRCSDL
value type: pIC50
Bear in mind: pIC50 is minus log10 of a mol/L concentration; give just that figure.

Check out these entries, answers already filled in.
# compound, pIC50
rows = [
    ("CCC(C)C1C2=C(Oc3c(C(=O)C(C)C)c(O)cc(O)c31)C(C)(C)C(=O)C(C)(C)C2=O (stereo not shown)", 5.54),
    ("CC(C)CC(=O)c1c(O)cc(O)c2c1OC1=C(C(=O)C(C)(C)C(=O)C1(C)C)C2C(C)C (stereo not shown)", 5.91),
    ("CCC(C)C(=O)c1c(O)cc(O)c2c1OC1=C(C(=O)C(C)(C)C(=O)C1(C)C)C2C(C)CC (stereo not shown) [phloroglucinol 6, rhodotomentodimer L]", 5.58),
    ("CCC(C)C(=O)c1c(O)cc2c(c1O)C(C(C)CC)C1=C(O2)C(C)(C)C(=O)C(C)(C)C1=O (stereo not shown)", 5.47),
    ("CC(C)C(=O)c1c(O)cc(O)c2c1OC1=C(C(=O)C(C)(C)C(=O)C1(C)C)C2C(C)C (stereo not shown)", 5.98),
    ("CCC(C)C(=O)c1c(O)cc(O)c2c1OC1=C(C(=O)C(C)(C)C(=O)C1(C)C)C2C(C)C (stereo not shown) [phloroglucinol 4, rhodotomentodimer J]", 5.62),
]

Please examine the following record next.
For the compound CCC(C)C(=O)c1c(O)cc(O)c2c1OC1=C(C(=O)C(C)(C)C(=O)C1(C)C)C2C(C)C (stereo not shown) [phloroglucinol 5, rhodotomentodimer K] , what pIC50 is on record?
5.61
